tested on: COLO 205 colon; assay: NCI-60 one-dose screen, 48 h (100 = growth as untreated, 0 = no growth, -100 = all killed); details: 10 µM unless noted
This is part of a sample that, as a whole, favours compounds with a hit. Of some 83,000 tested, about 20% had one in any assay.
Listed next: entries and their corresponding growth.
Field format: number, assumed %, no unit text.

Q: What value of growth has been recorded for this entry: CN1C(=O)C(O)(CC(=O)c2cc3ccccc3oc2=O)c2ccccc21 (stereo not drawn)
Result: 114

***
Q: What value of growth has been recorded for this entry: Cc1ccc(C(=O)Nc2ccc(-n3ccnc3)c(C(F)(F)F)c2)cc1C#Cc1cnc2cccnn12
Result: 22.5

Q: Now the same for Cc1ccc(C(=O)Nc2cc(-c3ccncc3)cc(C(F)(F)F)c2)cc1C#Cc1cnc2cccnn12
Result: 32.3

Q: Now the same for COC(=O)c1cc(C(=O)C(Br)Br)n2c1ccc1c3ccccc3ccc12
Result: 55.3

Q: Now the same for COc1ccc(/C=C/c2nc3ccccc3c(=O)n2CC(=O)Nc2ccccc2)cc1
Result: 71

Q: Now the same for COC(=O)c1ccc(-c2c(-c3ccccc3)c(F)c3oc(C(=O)OC)c(N)c3c2-c2ccccc2)cc1
Result: 99.7

Q: Now the same for Cc1cn(-c2cc(NC(=O)c3ccc(C)c(-n4cc(-c5cnc6cccnn56)nn4)c3)cc(C(F)(F)F)c2)cn1
Result: 31

Q: Now the same for COc1ccc(N=Nc2c(N)nn3c(N)c(C#N)c(-c4ccc(C)cc4)nc23)cc1
Result: 85.6

Q: Now the same for Cc1ccc(C(=O)Nc2cc(-n3cnc(F)c3)cc(C(F)(F)F)c2)cc1C#Cc1cnc2cccnn12
Result: 68.5

Q: Now the same for Cn1ncc2c(N)nc(Oc3ccccc3-c3ccccc3)nc21
Result: 33.9

Q: Now the same for Nc1nn2c(-c3cc4cc(Br)ccc4oc3=O)ccnc2c1N=Nc1ccc(Br)cc1
Result: 35.8

Q: Now the same for OC1CCC(Cn2c(C(F)(F)F)cc3c(Cl)ncnc32)CC1 (stereo not drawn)
Result: 60.2

Q: Now the same for COc1cncc(-c2ccc3ncnc(N4CCc5ccc(Cl)cc54)c3c2)c1
Result: 38.4

====

system: PC-3 prostate; assay: NCI-60 one-dose screen, 48 h (100 = growth as untreated, 0 = no growth, -100 = all killed); settings: 10 µM unless noted
Compounds without any hit were thinned out: in the full panel of roughly 83,000, 20% have a hit.
Listed next: entries and their corresponding growth.
Field format: number, assumed %, no unit text.

Consider the following illustrative entries.
Q: Provide the documented growth with PC-3 prostate as the system for NCCCCn1c(SCCc2c[nH]c3ccccc23)nnc1-c1ccc2ccccc2n1
Result: 2.82

Q: Now the same for Cc1ccc(/C=C/C(=O)c2ccc(S(=O)(=O)NCCNc3nc(N(C)C)nc(N4CCOCC4)n3)cc2)cc1
Result: 57.4

Q: Now the same for C=CC(=O)Nc1ccc(C(=O)/C=C/c2ccc(N(C)C)cc2)c(O)c1
Result: 34.4

Q: Now the same for CC[C@]12C=CCN3CC[C@]4(C(=C(C(=O)OC)C1)Nc1cc(OC)c([C@@H]5[C@H]6O[C@H]6[C@@]6(CC)CC(C(=O)OC)=C7Nc8cc(O)ccc8[C@@]78CCN5[C@@H]68)cc14)[C@@H]32
Result: 13.5

***
Q: Provide the documented growth with PC-3 prostate as the system for COc1cc(C2CC(c3cc(OC)c(OC)c(OC)c3)=Nc3c(N)nc(N)nc3N2)ccc1Oc1nc(Nc2ccc(F)cc2)nc(N(C)C)n1 (stereo unspecified)
Result: 33.8

Q: Now the same for COc1cccc(/C=C/c2nc3ccccc3c(=O)n2CC(=O)Nc2ccccc2)c1
Result: 76.1

====

test system: KM12 colon; test: NCI-60 one-dose screen, 48 h; details: 10 µM unless noted
This is part of a sample that, as a whole, favours compounds with a hit. Of some 83,000 tested, about 20% had one in any assay. Activity calls are given as the source filed them. The calls were made as follows: active = growth percent below 10; inactive = the rest.
Output constraint: value belongs to active, inactive

Q: Returns: the outcome recorded for COc1sc(/C=N/NC(=O)c2[nH]c3ccc(Br)cc3c2-c2ccccc2)cc1Br in this assay.
Result: active

***
Q: Returns: the outcome recorded for COc1ccc(OC)c(Cn2cc(C#N)c(N)c2C(=O)c2ccc(Br)cc2)c1 in this assay.
Result: inactive

Q: Now the same for COc1ccc(NC(=O)Cn2c(/C=C/c3cccc(OC)c3)nc3ccccc3c2=O)cc1
Result: inactive

Q: Now the same for Cc1ccc(NC(=O)N/N=C/c2c[nH]c3ccccc23)c(C)c1
Result: active

Q: Now the same for CS(=O)(=O)Nc1cc(-c2ccc3ncnc(N4CCc5cc(F)c(Cl)cc54)c3c2)cnc1Cl
Result: inactive

====

system: CCRF-CEM leukemia; experiment: NCI-60 one-dose screen, 48 h; details: 10 µM unless noted
The panel holds about 83,000 compounds, 20% with a hit somewhere; the sample as a whole holds those more often. Activity calls are given as the source filed them. How the source made its calls: active means growth percent below 10; inactive means the rest.
Output constraint: value belongs to active, inactive

Use these answered entries as a reference point.
Q: Returns: the outcome recorded for COc1ccc(N=Nc2c(N)nn3c(-c4ccc(OC)c(OC)c4)ccnc23)cc1 in this assay.
Result: inactive

Q: Now the same for O=CNc1ccc(-n2cnc3cc(-c4ccc(O)cc4)ccc32)cc1
Result: inactive

Q: Now the same for COc1ccc2c(c1)C(=O)N(C)C2C1c2c(cc3c(c2OC)OCO3)CCN1C (stereo not drawn)
Result: inactive

***
Q: Returns: the outcome recorded for CN(C)c1ccc(/C=C/c2n(Cc3ccc4ccccc4c3)c3ccccc3[n+]2Cc2ccc3ccccc3c2)cc1 in this assay.
Result: active

Q: Now the same for O=C(CSc1nnc(-c2ccc(-c3nc4ccc(Cl)cc4[nH]3)cc2)o1)Nc1ccc(Br)cc1
Result: active

Q: Now the same for Cc1ccc(C2CC(c3ccc(S(=O)(=O)NCCNc4nc(N(C)C)nc(N5CCOCC5)n4)cc3)=Nc3c(N)nc(N)nc3N2)cc1 (stereo not drawn)
Result: inactive

Q: Now the same for Oc1ccc(Cl)c(Nc2nc(SCCN3CCOCC3)nc3c2cnn3CC(Cl)c2ccc(Br)cc2)c1 (stereo not drawn)
Result: active

Q: Now the same for CCCCNC(=S)Nc1ccc(OCc2nc3ccc(Cl)cc3[nH]2)cc1
Result: active

Q: Now the same for O=C1N/C(=N\c2nccs2)S/C1=C\c1ccc([N+](=O)[O-])cc1
Result: active

Q: Now the same for CN(C)c1nc(NCCNS(=O)(=O)c2ccc(C(=O)/C=C/c3ccc(F)cc3)cc2)nc(N2CCOCC2)n1
Result: inactive

Q: Now the same for COc1c(B(O)O)cccc1-c1nc2ccc3cn[nH]c3c2c2c1CCCC2
Result: inactive

Q: Now the same for COc1ccc2[nH]cc(-c3cc4nc(-c5cn(C)c6ncc(Br)cc56)cc(N)n4n3)c2c1
Result: active

Q: Now the same for O=C(Cn1c(-c2ccccc2)nc2ccccc21)N=Nc1c(O)[nH]c2ccc(Cl)cc12
Result: inactive

Q: Now the same for COc1ccc2c(c1)C(Sc1ccc(Cl)cc1)c1c(nc(N)c(C#N)c1N)O2 (stereo not drawn)
Result: active

Q: Now the same for Cc1ccc(Cl)cc1NC(=O)Nc1nc2ccc([N+](=O)[O-])cc2s1
Result: active

Q: Now the same for Cc1ccc(C(=O)Nc2cc(-n3ccnc3)cc(C(F)(F)F)c2)cc1-n1cc(-c2cnc3cccnn23)nn1
Result: inactive

Q: Now the same for CN(CCSSCCN1CCOCC1)C(=O)Oc1cc2c(c3ccccc13)[C@H](CCl)CN2C(=O)c1cc2cc(OCCCN3CCC3)ccc2[nH]1
Result: active

Q: Now the same for CNS(=O)(=O)N1CCc2c(Br)c3c(c(OC)c2C1CCc1ccccc1)OCO3 (stereo not drawn)
Result: inactive

Q: Now the same for Cn1cc(-c2cc3nc(-c4c[nH]c5ccccc45)cc(N)n3n2)c2ccccc21
Result: active

====

tested on: CAKI-1 renal; experiment: NCI-60 one-dose screen, 48 h (100 = growth as untreated, 0 = no growth, -100 = all killed); conditions: 10 µM unless noted
About 83,000 compounds went through this panel and 20% of them were active in at least one assay; those are over-represented in the sample as a whole.
Measure: growth (%)
Field format: number, assumed %, no unit text.

Consider the following illustrative entries.
Q: What value of growth has been recorded for this entry: O=C1/C(=C/c2cnc(-c3ccccc3)s2)SC(=S)N1Cc1ccc2c(c1)OCO2
Result: 37.3

Q: Now the same for Cc1nc2sccn2c1-c1nnc(SCC(C)C)o1
Result: 76.7

Q: Now the same for Cc1ccc(O)cc1Nc1nc(SCCN2CCOCC2)nc2c1cnn2CC(Cl)c1ccc(Br)cc1 (stereo not given)
Result: -31.5

Q: Now the same for COc1cccc(-c2ccc(/C=N/NC(=O)c3[nH]c4ccc(Br)cc4c3-c3ccccc3)s2)c1
Result: 9.77

***
Q: What value of growth has been recorded for this entry: O=C(CSc1nnc(-c2ccc(-c3nc4ccccc4[nH]3)cc2)o1)Nc1ccc(Cl)cc1
Result: 17.1
